- SYSTEM UNDER TEST: von Willebrand factor full length (Homo sapiens) (UniProt P04275)
- ASSAY TEXT: filter
- MEASUREMENT CONTEXT: 2'-OMe/deoxy composite, single PS, internal PEG, 3'-idT; 31.7% bound at 100 nM vWF
REPORTED METRIC: Kd (nM)
Just the number in nM, nothing appended.

IN: Entry CGGCCGTGCGGTGCCUCCGUCACGUGCAGUGCCG [ARC1533] needs its Kd filled in; supply it.
OUT: 4

###

- SYSTEM UNDER TEST: von Willebrand factor full length (Homo sapiens) (UniProt P04275)
- ASSAY TEXT: filter
- MEASUREMENT CONTEXT: 2'-OMe/deoxy composite, single PS, internal PEG, 3'-idT; 14.1% bound at 100 nM vWF
REPORTED METRIC: pKd
Formally, pKd is defined as -log10 of the concentration c, with c in mol/L.

IN: Using von Willebrand factor full length (Homo sapiens) (UniProt P04275) as the test system, report measured pKd of GCGUGCAGUGCCGGCCGTGCGGTGCCUCCGUCACGC [ARC1527] .
OUT: 8.47

###

- SYSTEM UNDER TEST: von Willebrand factor full length (Homo sapiens) (UniProt P04275)
- ASSAY TEXT: filter
- MEASUREMENT CONTEXT: 2'-OMe/deoxy composite, single PS, internal PEG, 3'-idT; 19.3% bound at 100 nM vWF
REPORTED METRIC: Kd (nM)
State just the number; it will be interpreted in nM.

IN: Give Kd for this entry on von Willebrand factor full length (Homo sapiens) (UniProt P04275): CGUGCAGUGCCGGCCGTGCGGTGCCUCCGUCACG [ARC1532]
OUT: 2.6

###

- SYSTEM UNDER TEST: von Willebrand factor full length (Homo sapiens)
- ASSAY TEXT: filter
- MEASUREMENT CONTEXT: internal PEG spacer after GCGTGCAGTGCCT, 3'-idT; DPBS, 0.1 mg/mL BSA, RT
REPORTED METRIC: pKd
Lab note: report pKd as minus log10 of the concentration in molar units, number only.

IN: Given the sequence GCGTGCAGTGCCTAGGCCGTGCGGTGCCTCCGTCACGCC [ARC1028] , write its reported pKd.
OUT: 8.96
